molecular target: Human COX II (Homo sapiens); construct: A 2.0 kb fragment containing the coding region of either human or murine COX-I or human or murine COX-II; made in house; host or cells: SF9 insect cells (recombinant baculovirus, pVL1393); test: COX II activity in vitro (PGE2 formation, ELISA, recombinant enzyme); assay type: biochemical; settings: 10 μM arachidonic acid, pre-incubated 10-20 minutes, pH 8.0; read-out: Human COX II ID50
Sequence (P35354 18-604): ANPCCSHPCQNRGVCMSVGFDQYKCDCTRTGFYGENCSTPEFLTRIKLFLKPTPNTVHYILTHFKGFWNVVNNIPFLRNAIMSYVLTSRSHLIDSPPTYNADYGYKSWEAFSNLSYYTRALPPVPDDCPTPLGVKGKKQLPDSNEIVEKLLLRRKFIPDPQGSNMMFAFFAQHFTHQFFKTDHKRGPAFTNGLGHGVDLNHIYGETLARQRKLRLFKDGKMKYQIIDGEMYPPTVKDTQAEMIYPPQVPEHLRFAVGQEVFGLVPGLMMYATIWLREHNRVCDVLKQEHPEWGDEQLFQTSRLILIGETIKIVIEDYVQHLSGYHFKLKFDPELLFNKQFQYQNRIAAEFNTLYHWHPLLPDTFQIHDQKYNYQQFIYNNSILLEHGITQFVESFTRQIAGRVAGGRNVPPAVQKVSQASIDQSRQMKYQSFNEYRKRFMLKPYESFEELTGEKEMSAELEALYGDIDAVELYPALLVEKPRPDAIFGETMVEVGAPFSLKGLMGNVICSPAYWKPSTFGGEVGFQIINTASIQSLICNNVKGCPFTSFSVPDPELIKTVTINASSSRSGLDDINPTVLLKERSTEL
PARAMETER MEASURED: IC50 (µM)

1. CS(=O)(=O)c1ccc(-c2nn(CC(=O)O)c(C(F)(F)F)c2-c2ccc(F)cc2)cc1 [Example 10] = 23
2. CS(=O)(=O)c1ccc(-c2nn(CC(N)=O)c(C(F)(F)F)c2-c2ccc(F)cc2)cc1 [Example 11] = 11
3. CS(=O)(=O)c1ccc(-c2nn(CCN3CCCC3)c(C(F)(F)F)c2-c2ccc(F)cc2)cc1 [Example 12] = 3

1 = CS(=O)(=O)c1ccc(-c2nn(CCc3ccccc3)cc2-c2ccc(F)cc2)cc1 [Example 7]
2 = CS(=O)(=O)c1ccc(-c2nn(CC(=O)O)cc2-c2ccc(F)cc2)cc1 [Example 13]
Of 1 and 2 , which one carries the higher reported IC50? Give the label of your selection.
2
(2: 76 µM, 1: 0.5 µM)
